systemUnderTest: epithelial sodium channel (ENaC) (Canis lupus familiaris, UniProt A0A8I3MKE6+A0A8I3Q679+Q95165)
Construct: endogenous in cells; host or cells: primary canine bronchial epithelial cells cultured at air-liquid interface
Sequence (A0A8I3Q679 1-649): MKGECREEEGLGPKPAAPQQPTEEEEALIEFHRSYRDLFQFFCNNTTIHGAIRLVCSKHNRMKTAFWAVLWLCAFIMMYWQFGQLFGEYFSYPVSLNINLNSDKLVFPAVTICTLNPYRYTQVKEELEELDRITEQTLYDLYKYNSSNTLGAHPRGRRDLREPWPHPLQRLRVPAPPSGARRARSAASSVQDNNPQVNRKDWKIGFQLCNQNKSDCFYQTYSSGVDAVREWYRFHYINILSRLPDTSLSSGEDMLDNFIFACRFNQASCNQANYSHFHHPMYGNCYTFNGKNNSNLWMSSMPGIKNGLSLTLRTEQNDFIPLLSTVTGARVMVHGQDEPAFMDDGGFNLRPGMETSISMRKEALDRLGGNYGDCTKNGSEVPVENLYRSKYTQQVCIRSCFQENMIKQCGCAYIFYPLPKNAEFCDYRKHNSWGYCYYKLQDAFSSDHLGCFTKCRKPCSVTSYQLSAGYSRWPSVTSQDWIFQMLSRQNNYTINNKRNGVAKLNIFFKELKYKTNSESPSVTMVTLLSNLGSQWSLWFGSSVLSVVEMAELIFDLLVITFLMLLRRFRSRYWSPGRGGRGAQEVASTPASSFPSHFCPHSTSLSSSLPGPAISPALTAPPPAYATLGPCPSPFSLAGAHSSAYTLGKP
Sequence (Q95165 1-641): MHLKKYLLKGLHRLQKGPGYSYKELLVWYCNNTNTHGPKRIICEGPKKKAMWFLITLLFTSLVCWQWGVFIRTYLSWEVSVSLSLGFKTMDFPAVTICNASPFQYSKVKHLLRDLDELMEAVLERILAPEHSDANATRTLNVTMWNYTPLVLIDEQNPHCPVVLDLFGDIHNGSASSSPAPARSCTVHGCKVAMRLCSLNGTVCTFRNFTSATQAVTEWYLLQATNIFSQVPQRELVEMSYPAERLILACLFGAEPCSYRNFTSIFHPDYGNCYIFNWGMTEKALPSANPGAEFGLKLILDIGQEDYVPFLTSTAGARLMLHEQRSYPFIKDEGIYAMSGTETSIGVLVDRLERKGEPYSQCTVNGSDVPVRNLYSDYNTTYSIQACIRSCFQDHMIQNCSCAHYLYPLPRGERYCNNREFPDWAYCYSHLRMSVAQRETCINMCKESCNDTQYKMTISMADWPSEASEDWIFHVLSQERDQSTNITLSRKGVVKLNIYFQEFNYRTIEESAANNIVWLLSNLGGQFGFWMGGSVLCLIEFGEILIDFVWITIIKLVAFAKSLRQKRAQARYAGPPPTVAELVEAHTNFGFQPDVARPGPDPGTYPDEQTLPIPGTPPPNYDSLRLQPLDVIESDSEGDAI
Sequence (A0A8I3MKE6 1-646): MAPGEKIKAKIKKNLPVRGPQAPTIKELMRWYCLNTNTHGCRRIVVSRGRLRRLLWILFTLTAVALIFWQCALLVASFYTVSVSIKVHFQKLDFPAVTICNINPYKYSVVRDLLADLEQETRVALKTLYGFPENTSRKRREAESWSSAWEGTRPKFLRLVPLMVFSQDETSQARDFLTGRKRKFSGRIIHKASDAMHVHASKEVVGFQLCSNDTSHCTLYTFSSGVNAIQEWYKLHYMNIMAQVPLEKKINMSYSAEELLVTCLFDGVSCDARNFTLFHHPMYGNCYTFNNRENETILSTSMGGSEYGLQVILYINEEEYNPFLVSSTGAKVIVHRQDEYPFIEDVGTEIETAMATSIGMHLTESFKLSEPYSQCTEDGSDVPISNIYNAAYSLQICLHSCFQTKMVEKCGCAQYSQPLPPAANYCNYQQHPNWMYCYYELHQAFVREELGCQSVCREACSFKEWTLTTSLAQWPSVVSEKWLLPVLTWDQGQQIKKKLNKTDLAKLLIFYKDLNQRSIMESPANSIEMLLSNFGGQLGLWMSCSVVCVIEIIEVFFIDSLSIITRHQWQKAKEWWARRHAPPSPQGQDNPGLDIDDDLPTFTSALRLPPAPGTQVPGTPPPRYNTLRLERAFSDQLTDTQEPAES
assaySummary: ENaC blocking activity, short circuit current in airway epithelial monolayers in Ussing chambers
Assay type: cell-based
conditionLabel: canine bronchial epithelia; fold potency versus amiloride
Where a name gives a salt, the structure may show the parent alone.
readoutKind: ENaC blocking potency relative to Amiloride (× Amiloride)

compound="N=C(NCCCCc1ccc(CCCCNC[C@H](O)c2ccc(O)c(CO)c2)cc1)NC(=O)c1nc(Cl)c(N)nc1N [Compound 63]" unitname="× Amiloride" quantitativeresult=154
compound="N=C(NCCCCc1ccc(CCCCN(C[C@H](O)c2ccc(O)c(CO)c2)C[C@H](O)c2ccc(O)c(CO)c2)cc1)NC(=O)c1nc(Cl)c(N)nc1N [Compound 67]" unitname="× Amiloride" quantitativeresult=29
compound="N=C(NCCCCc1ccc(CCCCN(C[C@H](O)c2ccc(O)c(NC=O)c2)C[C@H](O)c2ccc(O)c(NC=O)c2)cc1)NC(=O)c1nc(Cl)c(N)nc1N [Compound 14, diacetic acid salt]" unitname="× Amiloride" quantitativeresult=66
